Read-out: Peroxisomal acyl-coenzyme A oxidase 1 (ACOX1) gene, ACOX1 (gene 51)
MEASUREMENT PROTOCOL: LTEA_HepaRG_ACOX1: Life Technologies and Expression Analysis (LTEA) Assay for Peroxisomal acyl-coenzyme A oxidase 1 (ACOX1) gene using HepaRG (AID 2283467)
EXPERIMENTAL SETUP: mRNA level, 48 h; actives raise or lower the signal
Calls of active or inactive are those of the source. Rule for the calls: active = hit-call score of the fitted dose curve at least 0.9, where 1 is the maximum; inactive = score below 0.9.
Possible outcomes: T (active), F (inactive)

COMPOUND	LABEL VALUE
O=c1n(Cl)c(=O)n(Cl)c(=O)n1Cl	F
CCN(CC)C(=O)C(C)Oc1cccc2ccccc12 (centres undefined)	T
CC(C)N1C(=O)N(c2ccccc2)CSC1=NC(C)(C)C	F
CSC(=O)c1c(C(F)F)nc(C(F)(F)F)c(C(=O)SC)c1CC(C)C	F
Cc1cc(C)nc(Nc2ccccc2)n1	F
Nc1cnn(-c2ccccc2)c(=O)c1Cl	F
Cc1nc(N(C)C)nc(OC(=O)N(C)C)c1C	F
CCCN(CC)CC1COC2(CCC(C(C)(C)C)CC2)O1 (centres undefined)	F
CC(C)C1(C)N=C(c2ncccc2C(=O)O)NC1=O (centres undefined)	F
Nc1c(Cl)c(Cl)nc(C(=O)O)c1Cl	F
CCCCC(C#N)(Cn1cncn1)c1ccc(Cl)cc1 (centres undefined)	F
CO/N=C(/C1=NOCCO1)c1ccccc1Oc1ncnc(Oc2ccccc2Cl)c1F	T
Cc1ccc(N=CN(C)C=Nc2ccc(C)cc2C)c(C)c1	F
CNC(=O)Oc1cccc2ccccc12	F

====

MEASUREMENT PROTOCOL: BSK_3C_SRB: Viability Assessment in the BioMAP Diversity Plus: 3C Assay (AID 2283023);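 note: cells read 24 h after compound dosing; fitted both ways against DMSO so a hit may be signal rise or drop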
EXPERIMENTAL SETUP: primary human endothelial cells (HUVEC)
Procedure: BSK_3C is a cell-based, multiplexed-readout assay that uses umbilical vein endothelium, a human vascular primary cell, with measurements taken at 24 hours after chemical dosing in a 96-well plate.BSK_3C_SRB is an assay component measured in the BSK_3C assay. It measures 0.1% sulforhodamine related to cell death using Sulforhodamine staining technology.Data from the assay component BSK_3C_SRB was analyzed into 1 assay endpoint. […]
Activity calls are given as the source filed them. The calls were made as follows: active = hit-call score of the fitted dose curve at least 0.9, where 1 is the maximum; inactive = score below 0.9.
Possible outcomes: yes for active, no for inactive

COMPOUND	LABEL VALUE
CC1(C)CON(Cc2ccccc2Cl)C1=O	no
CC(C)N1C(=O)N(c2ccccc2)CSC1=NC(C)(C)C	yes
COCC(C)N(C(=O)CCl)c1c(C)csc1C (centres undefined)	no
COP(=S)(OC)SCn1nnc2ccccc2c1=O	no

====

Read-out: Vascular cell adhesion molecule 1 (VCAM1), VCAM1 (gene 7412)
MEASUREMENT PROTOCOL: BSK_LPS_VCAM1: BioMAP Diversity Plus: LPS Assay for Vascular cell adhesion molecule 1 (VCAM1) Biomarker Activity (AID 2283086)
EXPERIMENTAL SETUP: primary human HUVEC with PBMC; actives raise or lower the signal
Activity calls are given as the source filed them. Rule for the calls: active = hit-call score of the fitted dose curve at least 0.9, where 1 is the maximum; inactive = score below 0.9.
Possible outcomes: active, inactive

COMPOUND	LABEL VALUE
Cc1c(COC(=O)[C@@H]2[C@H](/C=C(\Cl)C(F)(F)F)C2(C)C)cccc1-c1ccccc1	inactive
CC1(C)C(C(=O)OC(C#N)c2cccc(Oc3ccccc3)c2)C1(C)C (stereo not given)	inactive
COP(=S)(OC)Oc1ccc([N+](=O)[O-])c(C)c1	active
Cc1cnc(C2=NC(C)(C(C)C)C(=O)N2)c(C(=O)O)c1 (stereo not given)	inactive
CC(C)NC(=O)N1CC(=O)N(c2cc(Cl)cc(Cl)c2)C1=O	inactive
CCN(CC)c1nc(C)cc(OP(=S)(OC)OC)n1	active
CCN(CC)C(=O)C(C)Oc1cccc2ccccc12 (stereo not given)	inactive
CCNP(=S)(OC)O/C(C)=C/C(=O)OC(C)C (stereo not given)	inactive
CC1(C)CON(Cc2ccccc2Cl)C1=O	inactive
CC(C)N1C(=O)c2ccccc2NS1(=O)=O	inactive
CS(=O)(=O)c1cc(C(F)(F)F)ccc1C(=O)c1cnoc1C1CC1	inactive
COC(=O)NC(=S)Nc1ccccc1NC(=S)NC(=O)OC	inactive
COc1cc(OC)nc(NC(=O)NS(=O)(=O)c2ncccc2OCC(F)(F)F)n1	inactive
O=C1C2CC=CCC2C(=O)N1SC(Cl)(Cl)Cl (stereo not given)	active
N#CN=C1SCCN1Cc1ccc(Cl)nc1	inactive
CC(C)C1(C)N=C(c2ncccc2C(=O)O)NC1=O (stereo not given)	inactive
CCC(C)n1c(=O)[nH]c(C)c(Br)c1=O (stereo not given)	inactive
COCC(=O)N(c1c(C)cccc1C)C(C)C(=O)OC (stereo not given)	inactive
COCc1cnc(C2=NC(C)(C(C)C)C(=O)N2)c(C(=O)O)c1 (stereo not given)	inactive
COP(=S)(OC)SCn1nnc2ccccc2c1=O	active
CCCN(CC)CC1COC2(CCC(C(C)(C)C)CC2)O1 (stereo not given)	inactive
CCCC(=NOCC)C1=C(O)CC(CC(C)SCC)CC1=O (stereo not given)	inactive
CC1(C)C(C=C(Cl)Cl)C1C(=O)OC(C#N)c1cccc(Oc2ccccc2)c1 (stereo not given)	inactive
CN=C=S	inactive
CCOc1nc(F)cc2nc(S(=O)(=O)Nc3c(Cl)cccc3Cl)nn12	inactive

====

MEASUREMENT PROTOCOL: BSK_SAg_Proliferation: Cell Proliferation Assessment in the BioMAP Diversity Plus: SAg Assay (AID 2283095);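 note: relative cell number as total protein by SRB absorbance in sub-confluent culture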
EXPERIMENTAL SETUP: primary human HUVEC with PBMC
Activity calls are given as the source filed them. How the source made its calls: active means hit-call score of the fitted dose curve at least 0.9, where 1 is the maximum; inactive means score below 0.9.
Possible outcomes: true = active, false = inactive

SMILES STRING	LABEL VALUE
Nc1c(Cl)c(F)nc(OCC(=O)O)c1Cl	false
CSC(=O)c1c(C(F)F)nc(C(F)(F)F)c(C(=O)SC)c1CC(C)C	true
COC(=O)c1c(C(F)F)nc(C(F)(F)F)c(C2=NCCS2)c1CC(C)C	true

====

Read-out: Interleukin-1 alpha (IL1a), IL1A (gene 3552)
MEASUREMENT PROTOCOL: BSK_KF3CT_IL1a: BioMAP Diversity Plus: KF3CT Assay for Interleukin-1 alpha (IL1a) Biomarker Activity (AID 2283070)
EXPERIMENTAL SETUP: primary human keratinocytes with fibroblasts; actives raise or lower the signal
Active and inactive are the calls of the source. How the source made its calls: active means hit-call score of the fitted dose curve at least 0.9, where 1 is the maximum; inactive means score below 0.9.
Possible outcomes: yes (1) for active, no (0) for inactive

COMPOUND	LABEL VALUE
Clc1cccc(C(Cl)(Cl)Cl)n1	no (0)
O=C(O)c1c(Cl)ccc2cc(Cl)cnc12	no (0)
CN=C=S	no (0)
CCN(CC)C(=O)C(C)Oc1cccc2ccccc12 (stereo not drawn)	no (0)
N#Cc1c(Cl)cccc1Cl	no (0)
CS(=O)(=O)c1ccc(C(=O)C2C(=O)CCCC2=O)c([N+](=O)[O-])c1	no (0)
CO/N=C(/C1=NOCCO1)c1ccccc1Oc1ncnc(Oc2ccccc2Cl)c1F	yes (1)
CCOP(=S)(OCC)Oc1nc(Cl)n(C(C)C)n1	no (0)
O=P(O)(O)CCCl	no (0)
Cc1nc(N(C)C)nc(OC(=O)N(C)C)c1C	no (0)
CCCCC(C#N)(Cn1cncn1)c1ccc(Cl)cc1 (stereo not drawn)	no (0)
CC(C)C1(C)N=C(c2ncccc2C(=O)O)NC1=O (stereo not drawn)	no (0)
O=c1n(Cl)c(=O)n(Cl)c(=O)n1Cl	no (0)

====

Read-out: Tissue plasminogen activator (tPA), PLAT (gene 5327)
MEASUREMENT PROTOCOL: BSK_BE3C_tPA: BioMAP Diversity Plus: BE3C Assay for Tissue plasminogen activator (tPA) Biomarker Activity (AID 2283041)
EXPERIMENTAL SETUP: primary human bronchial epithelial cells; actives raise or lower the signal
Activity calls are given as the source filed them. The calls were made as follows: active = hit-call score of the fitted dose curve at least 0.9, where 1 is the maximum; inactive = score below 0.9.
Possible outcomes: active, inactive

MOLECULE	LABEL VALUE
CN=C=S	inactive
O=C(Nc1ccccc1-c1ccc(Cl)cc1)c1cccnc1Cl	inactive
CNC(=O)Oc1cccc2ccccc12	inactive
Clc1nc(Cl)nc(Nc2ccccc2Cl)n1	inactive
CCC(C)n1c(=O)[nH]c(C)c(Br)c1=O (stereo not drawn)	inactive
CC1(C)C(C(=O)OC(C#N)c2cccc(Oc3ccccc3)c2)C1(C)C (stereo not drawn)	inactive
Nc1cnn(-c2ccccc2)c(=O)c1Cl	inactive
Cn1c(-c2ccccc2)cc(-c2ccccc2)[n+]1C	inactive
CS(=O)(=O)c1cc(C(F)(F)F)ccc1C(=O)c1cnoc1C1CC1	inactive
Cc1cnc(C2=NC(C)(C(C)C)C(=O)N2)c(C(=O)O)c1 (stereo not drawn)	inactive
COCC(=O)N(c1c(C)cccc1C)C(C)C(=O)OC (stereo not drawn)	inactive
CCOc1nc(C(Cl)(Cl)Cl)ns1	inactive
COC(=O)N(C(=O)N1CO[C@@]2(C(=O)OC)Cc3cc(Cl)ccc3C2=N1)c1ccc(OC(F)(F)F)cc1	inactive
O=C1C2CC=CCC2C(=O)N1SC(Cl)(Cl)Cl (stereo not drawn)	active
CCN(CC)c1nc(C)cc(OP(=S)(OC)OC)n1	inactive
CC1(C)CON(Cc2ccccc2Cl)C1=O	inactive
CCCCC(O)(Cn1cncn1)c1ccc(Cl)cc1Cl (stereo not drawn)	inactive
COc1cc(Cl)c(OC)cc1Cl	inactive

Taken from PubChem BioAssay (EPA / NIEHS).
